# tgt: Coagulation factor X (Homo sapiens)
For each record, write down the corresponding pIC50.
One number for each entry, as −log10 of the molar value.

COC(=O)c1ccccc1CS(=O)(=O)N[C@H]1CCCCN(CC(=O)N[C@H]2CCCN(C(=N)N)C2O)C1=O (stereo partly drawn)	6.48

Can you share its pIC50? I mean this compound: N=C(N)N1CCC[C@H](NC(=O)CN2CCCC[C@H](NS(=O)(=O)Cc3ccccc3C(=O)OCC3CCCCC3)C2=O)C1O (stereo partly drawn)
6.20

====

# tgt: Serine protease 1 (Homo sapiens, UniProt P07477)
# Sequence (P07477 whole entry): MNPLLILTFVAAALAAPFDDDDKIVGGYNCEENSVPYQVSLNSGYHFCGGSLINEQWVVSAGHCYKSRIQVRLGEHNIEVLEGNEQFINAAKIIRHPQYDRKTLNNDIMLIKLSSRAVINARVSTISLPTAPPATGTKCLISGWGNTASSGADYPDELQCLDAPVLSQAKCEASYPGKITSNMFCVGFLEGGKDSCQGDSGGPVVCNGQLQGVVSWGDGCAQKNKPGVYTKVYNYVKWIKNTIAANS
endpoint: IC50 (nM)
Answers are plain numbers, in nM.

CC(C)OC(=O)c1ccccc1CS(=O)(=O)N[C@H]1CCCCN(CC(=O)N[C@H]2CCCN(C(=N)N)C2O)C1=O (some centres undefined)	41.3
CCCCCCCCCCOC(=O)c1ccccc1CS(=O)(=O)N[C@H]1CCCCN(CC(=O)N[C@H]2CCCN(C(=N)N)C2O)C1=O (some centres undefined)	143
N=C(N)N1CCC[C@H](NC(=O)CN2CCCC[C@H](NS(=O)(=O)Cc3ccccc3C(=O)O)C2=O)C1O (some centres undefined)	247

Now let's try a different one.
Can you share its IC50? I mean this molecule: N=C(N)N1CCC[C@H](NC(=O)CN2CCCC[C@H](N3C(=O)c4ccccc4CS3(=O)=O)C2=O)C1O (some centres undefined)
2500

====

# tgt: Coagulation factor X (Homo sapiens, UniProt P00742)
# Sequence (P00742 41-179 limits assumed): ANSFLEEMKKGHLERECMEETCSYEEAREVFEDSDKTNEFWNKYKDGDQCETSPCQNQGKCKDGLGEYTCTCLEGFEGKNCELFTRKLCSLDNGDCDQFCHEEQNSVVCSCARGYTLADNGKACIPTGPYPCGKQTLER
# Sequence (P00742 235-488 limits assumed): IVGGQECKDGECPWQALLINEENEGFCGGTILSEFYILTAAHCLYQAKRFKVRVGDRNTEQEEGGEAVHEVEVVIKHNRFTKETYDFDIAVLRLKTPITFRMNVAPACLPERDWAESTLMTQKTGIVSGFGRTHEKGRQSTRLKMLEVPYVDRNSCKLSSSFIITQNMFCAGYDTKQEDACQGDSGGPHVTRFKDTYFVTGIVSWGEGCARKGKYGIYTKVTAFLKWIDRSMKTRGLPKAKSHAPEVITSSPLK
For each record, write down the corresponding IC50.
Give bare numbers, in nM.

CC(C)OC(=O)c1ccccc1CS(=O)(=O)N[C@H]1CCCCN(CC(=O)N[C@H]2CCCN(C(=N)N)C2O)C1=O (some centres undefined)	369

Record CCCOC(=O)c1ccccc1CS(=O)(=O)N[C@H]1CCCCN(CC(=O)N[C@H]2CCCN(C(=N)N)C2O)C1=O (some centres undefined) : what is its IC50 with Coagulation factor X (Homo sapiens, UniProt P00742)?
451
